Attribute: ratio of amounts bound (vs GLS3000)
# TARGET: CD3ε homodimer protein (human, UniProt P07766 23-126, limits assumed)
# Sequence (P07766 23-126 limits assumed): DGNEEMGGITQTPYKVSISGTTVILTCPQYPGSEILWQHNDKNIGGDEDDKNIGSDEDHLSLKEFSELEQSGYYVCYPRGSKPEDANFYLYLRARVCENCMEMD
# TEST NAME: SPR, immobilized CD3ε homodimer;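 also: biacore T200 surface plasmon resonance at 25 °C, antibody variants flowed as analytes over amine-coupled CD3ε homodimer on a CM4 chip, variant binding amount divided by that of GLS3000 antibody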

[ask] I am curious: what ratio of amounts bound (vs GLS3000) value has been reported for GLS3000 G89N (antibody, name in Kabat numbering, V domains shown, one-arm format as m2) VH: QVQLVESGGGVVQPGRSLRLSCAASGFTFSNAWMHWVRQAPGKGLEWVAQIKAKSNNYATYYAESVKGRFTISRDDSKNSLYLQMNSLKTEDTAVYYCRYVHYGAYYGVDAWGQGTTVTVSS VL: DIVMTQSPLSLPVTPGEPASISCRSSQSLVHSNRNTYLHWYQQKPGQAPRLLIYKVSNRFSGVPDRFSGSGSGTDFTLKISRVEAEDVGVYYCNQGTQVPYTFGQGTKLEIK ?
[reply] 0.8

Then there is this binder:
[ask] Looking for the measured ratio of amounts bound (vs GLS3000) of GLS3000 S25D (antibody, name in Kabat numbering, V domains shown, one-arm format as m2) VH: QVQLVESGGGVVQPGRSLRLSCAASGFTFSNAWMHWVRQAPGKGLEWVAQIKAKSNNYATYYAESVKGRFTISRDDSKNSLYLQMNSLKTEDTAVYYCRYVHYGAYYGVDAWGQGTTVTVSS VL: DIVMTQSPLSLPVTPGEPASISCRDSQSLVHSNRNTYLHWYQQKPGQAPRLLIYKVSNRFSGVPDRFSGSGSGTDFTLKISRVEAEDVGVYYCGQGTQVPYTFGQGTKLEIK , can you help?
[reply] 0.48
